Tested on: NCI-H23 lung
Experiment: NCI-60 one-dose screen, 48 h (100 = growth as untreated, 0 = no growth, -100 = all killed)
Details: 10 µM unless noted
The panel holds about 83,000 compounds, 20% with a hit somewhere; the sample as a whole holds those more often.
endpoint name: growth (%)
Please state the figure in %; there is no need to write the unit.

The examples below pair each entry with its known result.
{"molecule": "S=C(c1ccc2c(c1)OCO2)N1CCN(c2ccccc2Cl)CC1", "growth [%]": 101}
{"molecule": "CCN1C(=O)N(CC)C2Nn3c(s/c(=C\\c4cccc([N+](=O)[O-])c4)c3=O)=NC21 (stereo not drawn)", "growth [%]": 57.7}

Continue with the molecule presented below.
Please provide the recorded growth for CCc1ccccc1NC(=O)/C(C#N)=C/c1ccc(OC)cc1 , tested on NCI-H23 lung.
98.2

###

System: CAKI-1 renal
Test: NCI-60 one-dose screen, 48 h (100 = growth as untreated, 0 = no growth, -100 = all killed)
Details: 10 µM unless noted
About 83,000 compounds went through this panel and 20% of them were active in at least one assay; those are over-represented in the sample as a whole.
endpoint name: growth (%)
Provide the reading as a plain figure in %.

Missing value: growth, CAKI-1 renal, entry COC(=O)CCC1=C(C)C2=NC1=CC1=NC(=CC3=NC(=Cc4[nH]c(/c(=C(/C)O)c4C)=C2)C(C(C)=O)=C3C)C(C)=C1CCC(=O)OC . Fill in?
98.8

API: value(readout=growth, system=CAKI-1 renal) for record CCOC(CN=Cc1cc(C)c2[nH]c3ccccc3c2c1C)OCC
105

Hello, I am looking for reported growth with CAKI-1 renal for Clc1cc(Cl)cc(Nc2ccc3cc(OCCCN4CCOCC4)ccc3n2)c1 . Could you help?
75.3

###

Tested on: SK-MEL-28 melanoma
Test: NCI-60 one-dose screen, 48 h
Settings: 10 µM unless noted
Compounds without any hit were thinned out: in the full panel of roughly 83,000, 20% have a hit. Activity calls are given as the source filed them. Rule for the calls: active = growth percent below 10; inactive = the rest.
Please answer using one outcome listed in True = active, False = inactive

Outcome? CCc1c2c(nc3ccc(OC(=O)OCc4ccc(B5OC(C)(C)C(C)(C)O5)cc4)cc13)-c1cc3c(c(=O)n1C2)COC(=O)[C@]3(O)CC
True

Recorded call for Nc1n[nH]c2cc(F)c([C@@H]3Nc4c(F)cc5[nH]ncc5c4[C@H]4C5CCC(C5)[C@@H]34)cc12 (stereo partly drawn) ?
False

Record lookup: outcome of this test for COc1ccc2c(c1)O/C(=C\c1cccc(OCC(=O)Nc3nc(C)c(C)s3)c1)C2=O ?
False

###

Tested on: SNB-19 CNS
Assay: NCI-60 one-dose screen, 48 h (100 = growth as untreated, 0 = no growth, -100 = all killed)
Settings: 10 µM unless noted
Compounds without any hit were thinned out: in the full panel of roughly 83,000, 20% have a hit.
endpoint name: growth (%)
Unit % implied. Number only.

The examples below pair each entry with its known result.
{"smiles input": "NC(=S)N/N=C/Cc1ccccc1", "tested target": "SNB-19 CNS", "growth, %": 104}
{"smiles input": "O=C(O)c1ccc2c(c1Cl)C(=O)c1ccccc1C2=O", "tested target": "SNB-19 CNS", "growth, %": 98.8}
{"smiles input": "O=C1OC(c2nc3ccccc3s2)=C/C1=C\\c1ccc(O)cc1", "tested target": "SNB-19 CNS", "growth, %": 97.2}

# ---- query compound ----
Please report the recorded growth for C[n+]1cccc(CC(=O)NO)c1 .
102

###

System: NCI-H226 lung
Assay: NCI-60 one-dose screen, 48 h
Conditions: 10 µM unless noted
The panel holds about 83,000 compounds, 20% with a hit somewhere; the sample as a whole holds those more often. Calls of active or inactive are those of the source. How the source made its calls: active means growth percent below 10; inactive means the rest.
Choose the fitting class; nothing outside label 1 = active, label 0 = inactive is accepted.

{"smiles input": "COc1cc(/C=N/Nc2ncc(-c3cc4cc5c(cc4o3)OCO5)s2)cc(OC)c1OC", "class": "label 0"}
{"smiles input": "COc1cccc(-c2nn(-c3ccccc3)cc2-c2ccnc(NCCNC(=O)Nc3ccccc3)c2)c1", "class": "label 0"}
{"smiles input": "COc1ccc2c(c1)C(=O)/C(=C/c1cccc(OCC(=O)Nc3nc(C)c(C)s3)c1)O2", "class": "label 0"}
{"smiles input": "O=C1/C(=C/c2ccc(Br)cc2)C=C(c2ccccc2)N1CCc1ccccc1", "class": "label 1"}

Please turn your attention to the following entry.
# outcome recorded in this test, key = NC(=S)N/N=C/Cc1ccccc1
label 0

###

Tested on: UO-31 renal
Assay: NCI-60 one-dose screen, 48 h
Conditions: 10 µM unless noted
Compounds without any hit were thinned out: in the full panel of roughly 83,000, 20% have a hit. Calls of active or inactive are those of the source. Rule for the calls: active = growth percent below 10; inactive = the rest.
Would you mind answering with one of these outcomes? YES (active), NO (inactive)

Observe how each entry below is paired with its result.
{"compound": "Fc1cnc(NC2CC2)nc1-c1cnc2ccc(N3CCOCC3)cn12", "tested target": "UO-31 renal", "class": "YES"}
{"compound": "COc1ccc(C2C(c3nn[nH]n3)=C(N)Oc3c2ccc2ccccc32)cc1 (configuration not stated)", "tested target": "UO-31 renal", "class": "NO"}
{"compound": "NC(N)=Nc1nc2ccccc2n2c1nc1ccccc12", "tested target": "UO-31 renal", "class": "NO"}

Query: recorded result category for CC/C=C\CCC/C=C1/C(=O)C=C[C@@H]1C/C=C\CCCC(=O)O in this test
NO

Test call for this compound, please: c1csc(-c2c3ccc(=[N+]4CCCCC4)cc-3oc3cc(N4CCCCC4)ccc23)c1
YES

GET /call?item= N=C(N)c1ccc(-c2ccc(-c3cncc4ccccc34)s2)s1 returns the recorded outcome of this test.
YES

Could you kindly confirm the outcome this assay logged for O=C(CSc1nccc(Nc2ccc(S(=O)(=O)Nc3nccs3)cc2)n1)c1ccc(F)cc1 ?
NO

Which outcome did this test record for the compound COCN1CCC2N(COC)CCC3N(COC)CCC1N23 (configuration not stated) ?
NO

Just curious, what result did CCN(CC)CCCNc1ccc(Nc2ccc(OC)cc2)cc1 get here?
NO

###

Test system: OVCAR-3 ovarian
Test: NCI-60 one-dose screen, 48 h (100 = growth as untreated, 0 = no growth, -100 = all killed)
Details: 10 µM unless noted
About 83,000 compounds went through this panel and 20% of them were active in at least one assay; those are over-represented in the sample as a whole.
Below, each entry is listed alongside its reported growth.
Report only the number, with the unit % understood.

# example entries with known answers
{"smiles input": "Cc1c(C(=O)N[C@@H](Cc2ccccc2)C(=O)C(=O)NCCc2ccccc2)[nH]c2ccccc2c1=O", "quantity unit": "%", "growth": 105}
{"smiles input": "COc1ccc(-c2nc3c(N)c(CO)c(C)nc3o2)cc1", "quantity unit": "%", "growth": 103}
{"smiles input": "CN(Cc1cnc2nc(N)nc(N)c2n1)c1ccc(C(=O)N[C@@H](CCc2nn[nH]n2)c2nn[nH]n2)cc1", "quantity unit": "%", "growth": 53}
{"smiles input": "C[n+]1cc2cc(C(N)=O)[nH]c3c(=N)c(Cl)c(N)c1c23", "quantity unit": "%", "growth": 63.1}
{"smiles input": "C[C@H]1[C@H]2[C@H]3CC[C@@H]4[C@@]5(C)C/C(=C/c6cccnc6)C(=O)C(C)(C)[C@@H]5CC[C@@]4(C)[C@]3(C)CC[C@]23CO[C@]1(C)[C@@H](C(=O)/C=C\\c1cccnc1)C3", "quantity unit": "%", "growth": -43.7}

What value of growth has been reported for the following molecule? O=[N+]([O-])c1ccc(-c2cc(-c3ccc(Nc4nc(Nc5ccc(Cl)cc5)nc(Nc5ccc(Cl)cc5)n4)cc3)no2)cc1
241

Given COc1cccc(-c2nc3sccn3c2-c2ccnc(NCCNS(=O)(=O)c3ccc(C(F)(F)F)cc3)c2)c1 , state its recorded growth.
40.7

Value lookup for growth; key = COc1c(CCC[P+](c2ccccc2)(c2ccccc2)c2ccccc2)cc2c(c1OC)OCO2
7.21

Please report the recorded growth for CCCCCCCCCCCCCCCCCC1=NCCN1CCOC1=C(Cl)C(=O)c2ccccc2C1=O .
23.4

Any idea what its growth is? The molecule is CCOC(=O)C/C(C)=N\NC(=O)c1ccncc1
105

What value of growth has been reported for the following molecule? COc1ccc2c(c1)C(=O)/C(=C/c1cccc(OCC(=O)Nc3nc(C)c(C)s3)c1)O2
-58.9

Name the reported growth value associated with the molecule O=C(O)c1ccc2c(c1)CCC2
119

###

Test system: SF-539 CNS
Assay: NCI-60 one-dose screen, 48 h
Conditions: 10 µM unless noted
This is part of a sample that, as a whole, favours compounds with a hit. Of some 83,000 tested, about 20% had one in any assay. Activity calls are given as the source filed them. Rule for the calls: active = growth percent below 10; inactive = the rest.
Output constraint: value belongs to t (active), f (inactive)

Please let me know the test result on file for COc1cccc(-c2nc3sccn3c2-c2ccnc(NCCNS(=O)(=O)c3ccc(C(F)(F)F)cc3)c2)c1 .
f
